- system-name: O-acyltransferase (Oryctolagus cuniculus)
- procedure-text: In vitro inhibition of Acyl coenzyme A:cholesterol acyltransferase using intestinal microsomes isolated from cholesterol fed rabbits
property: IC50 (nM)

> print(dat)
                                   molecule                               system.name  property  endpoint.unit  measured
1  Cc1cccc(C(C)(C)C)c1NC(=O)NCC1(c2ccccc2)CCCC1  O-acyltransferase (Oryctolagus cuniculus)      IC50             nM        18

P. CCc1cccc(C(C)C)c1NC(=O)NCC1(c2ccccc2)CCCC1
Q. CCOC(=O)c1ccccc1NC(=O)NCC1(c2ccccc2)CCCCC1
Lookup: Look at P and Q . Which one has the lower recorded IC50 number? Provide the label of your selected option as the answer.
Found: P

a. CC(C)c1cccc(C(C)C)c1NC(=O)NCC1(c2cccc3ccccc23)CCCC1
b. CC(C)c1cccc(C(C)C)c1NC(=O)NC(C)(C)Cc1ccccc1
Lookup: Identify the item whose IC50 is the smaller number: a or b Let me know the label of the one you choose.
Found: a

1. CC(C)c1cccc(C(C)C)c1NC(=O)NCCc1ccccc1
2. O=C(NCC1(c2ccccc2)CCCC1)Nc1c(Cl)cc(Cl)cc1Cl
3. CCC(CC)(CNC(=O)Nc1c(C(C)C)cccc1C(C)C)c1ccccc1
4. CC(C)c1cccc(C(C)C)c1NC(=O)NC1CC1c1ccccc1 (stereo unspecified)
Lookup: Output the entries ranked by IC50 from maximum down to minimum. In your reply, arrange the labels in the requested order.
Found: 4, 2, 1, 3
(4: 2000 nM, 2: 960 nM, 1: 88 nM, 3: 17 nM)

1. CC(C)c1cccc(C(C)C)c1N=C(N)NCC1(c2ccccc2)CCCC1
2. CC(C)c1cccc(C(C)C)c1NC(=O)NC1(c2ccccc2)CCCC1
Lookup: // which entry has the larger IC50 value, 1 or 2 ? When you have decided, please share the label of that item.
Found: 1

###

- system-name: O-acyltransferase (Oryctolagus cuniculus)
- procedure-text: In vitro inhibition of Acyl coenzyme A:cholesterol acyltransferase using intestinal microsomes isolated from cholesterol fed rabbits
pIC50: −log10 of the molar value.
property: pIC50

> print(dat)
                                   compound  measured
1  CC(C)c1cccc(C(C)C)c1NC(=O)NCC1(c2ccccc2)CCCC1      7.77

1. CC(C)c1ccccc1NC(=O)NCC1(c2ccccc2)CCCCC1
2. Cc1cccc(C(C)C)c1NC(=O)NCC1(c2ccccc2)CCCCC1
Lookup: I'm curious, which of these has a smaller pIC50 number: 1 or 2 ? Kindly give the label for the entry you pick.
Found: 1
(1: 6.41, 2: 7.24)

P. CC(C)c1cccc(C(C)C)c1NC(=O)NC(Cc1ccccc1)c1ccccc1 (stereo not drawn)
Q. CC(C)c1cccc(C(C)C)c1NC(=O)Nc1ccccc1
R. CC(C)c1cccc(C(C)C)c1NC(=NC#N)NCC1(c2ccccc2)CCCC1
S. O=C(NCC1(c2ccccc2)CCCCC1)Nc1ccccc1
T. O=C(NCC1(c2ccccc2)CCCCC1)Nc1ccccc1C(F)(F)F
Lookup: Sequence the entries by pIC50, beginning with the highest number. Dear reader, please state the labels in the requested order.
Found: P, T, Q, S, R
(P: 7.51, T: 6.70, Q: 6.04, S: 5.64, R: 5.00)

P. CCc1cccc(C(C)C)c1NC(=O)NCC1(c2ccccc2)CCCCC1
Q. COc1cc(OC)c(NC(=O)NCC2(c3ccccc3)CCCC2)c(OC)c1
Lookup: Could you point out whether the larger pIC50 belongs to P or to Q ? Answer by quoting the chosen item's label.
Found: P
(P: 7.70, Q: 5.85)

###

- system-name: O-acyltransferase (Oryctolagus cuniculus, UniProt G1SFD9)
- Sequence (G1SFD9 1-524): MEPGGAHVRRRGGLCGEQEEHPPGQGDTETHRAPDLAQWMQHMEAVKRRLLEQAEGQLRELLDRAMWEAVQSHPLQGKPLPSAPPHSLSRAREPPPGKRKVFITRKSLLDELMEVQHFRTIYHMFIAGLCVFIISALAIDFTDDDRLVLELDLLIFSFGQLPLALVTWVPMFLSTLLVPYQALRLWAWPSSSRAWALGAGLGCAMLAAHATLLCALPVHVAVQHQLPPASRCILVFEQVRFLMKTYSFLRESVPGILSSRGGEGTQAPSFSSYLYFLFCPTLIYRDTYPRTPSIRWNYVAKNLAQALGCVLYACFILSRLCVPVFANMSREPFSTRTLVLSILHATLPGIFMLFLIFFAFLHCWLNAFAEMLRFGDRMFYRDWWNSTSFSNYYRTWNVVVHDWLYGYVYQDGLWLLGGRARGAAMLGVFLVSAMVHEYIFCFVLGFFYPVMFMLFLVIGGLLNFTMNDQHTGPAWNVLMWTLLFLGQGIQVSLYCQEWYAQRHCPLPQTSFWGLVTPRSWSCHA
- procedure-text: In vitro inhibition of Acyl coenzyme A:cholesterol acyltransferase using intestinal microsomes isolated from cholesterol fed rabbits
property: IC50 (nM)

Illustrative cases are given below, each with its answer.
> print(dat)
                                    molecule  property  measured
 1     Cc1ccc(NC(=O)NCC2(c3ccccc3)CCCCC2)cc1      IC50      4500
 2  CN(C)c1cccc(N(C)C)c1NC(=O)NCC1(c2ccccc2)CCCC1      IC50       110
 3     O=C(NCC1(c2ccccc2)CCCCC1)Nc1ccc(I)cc1      IC50      2300
 4     Cc1cccc(NC(=O)NCC2(c3ccccc3)CCCCC2)c1      IC50      2800
 5     O=C(NCC1(c2ccccc2)CCCC1)Nc1ccc(F)cc1F      IC50      1300
 6   O=C(NCC1(c2ccccc2)CCCC1)Nc1c(Cl)cccc1Cl      IC50       240
 7  CC(C)c1cccc(C(C)C)c1NC(=O)NCCC(c1ccccc1)c1ccccc1      IC50       140
 8  O=C(NCC1(c2ccccc2)CCCCC1)Nc1ccc(Cl)c(Cl)c1      IC50      3800
 9  CC(C)c1cccc(C(C)C)c1NC(=O)NCC1(c2ccccc2)CCCCC1      IC50        21
10       Cc1ccccc1NC(=O)NCC1(c2ccccc2)CCCCC1      IC50       640

P. O=C(NCC1(c2ccccc2)CCCC1)Nc1c(F)cc(F)cc1F
Q. CCCCC(CCCC)(CNC(=O)Nc1c(C(C)C)cccc1C(C)C)c1ccccc1
Lookup: Lab note: record which item had the higher IC50, P or Q . Please reply using the label of the selected record.
Found: P

a. CC(C)c1ccc(NC(=O)NCC2(c3ccccc3)CCCCC2)cc1
b. CC(C)c1cccc(C(C)C)c1NC(=O)NCCc1cccc2ccccc12
Lookup: Given a and b , report the one with the higher recorded IC50. Indicate which entry you chose by stating its label.
Found: a
(a: 1500 nM, b: 41 nM)

a. O=C(NCC1(c2ccccc2)CCCCC1)Nc1ccc(Cl)cc1
b. CCCC(CCC)(CNC(=O)Nc1c(C(C)C)cccc1C(C)C)c1ccccc1
c. CC(C)c1cccc(C(C)C)c1NC(=O)NCC1(c2cccnc2)CCCC1
d. COc1ccccc1NC(=O)NCC1(c2ccccc2)CCCCC1
e. CC(C)c1cccc(C(C)C)c1NC(=O)NCC(c1ccccc1)C(C)(C)C (stereo not drawn)
Lookup: Falling order of IC50, please. Return value: ordered labels per request.
Found: a, d, e, c, b

a. CC(C)c1cccc(C(C)C)c1NC(=S)NCC1(c2ccccc2)CCCC1
b. CC(C)c1cccc(C(C)C)c1NC(=O)NCCCc1ccccc1
c. CC(C)c1cccc(C(C)C)c1NC(=O)NCC(C)(C)c1ccccc1
Lookup: Arrange these 3 molecules in increasing order of IC50. Please respond with the labels ordered as the question requires.
Found: c, b, a

###

- system-name: O-acyltransferase (Oryctolagus cuniculus, UniProt G1SFD9)
- procedure-text: In vitro inhibition of Acyl coenzyme A:cholesterol acyltransferase using intestinal microsomes isolated from cholesterol fed rabbits
property: IC50 (µM)

> print(dat)
                                smiles.data  property  measured
1  CC(C)c1cccc(C(C)C)c1NC(=O)NCC1(c2ccc3ccccc3c2)CCCC1      IC50      0.26

P. CC(C)c1cccc(C(C)C)c1NC(=O)NCCc1ccc2ccccc2c1
Q. Cc1cc(C)c(NC(=O)NCC2(c3ccccc3)CCCC2)c(C)c1
Lookup: When the recorded IC50 values are compared, which is smaller: that of P or that of Q ? I would appreciate it if you answered with the label of your choice.
Found: P
(P: 0.039 µM, Q: 3.3 µM)

###

- system-name: O-acyltransferase (Oryctolagus cuniculus, UniProt G1SFD9)
- procedure-text: In vitro inhibition of Acyl coenzyme A:cholesterol acyltransferase using intestinal microsomes isolated from cholesterol fed rabbits
pIC50: −log10 of the molar value.
property: pIC50

Worked cases, answers included:
> print(dat)
                                smiles.data  measured
1     Cc1cccc(C)c1NC(=O)NCC1(c2ccccc2)CCCC1      6.72
2  Cc1ccc(C)c(NC(=O)NCC2(c3ccccc3)CCCCC2)c1      6.33
3  Cc1cccc(C(C)(C)C)c1NC(=O)NCC1(c2ccccc2)CCCCC1      7.27
4   CCc1cccc(CC)c1NC(=O)NCC1(c2ccccc2)CCCC1      7.25
5  CC(C)c1cccc(C(C)C)c1NC(=O)NCC1(c2ccccc2)CC1      7.74
6  O=C(NCC1(c2ccccc2)CCCCC1)Nc1cccc(Cl)c1Cl      5.89

P. CC(C)c1cccc(C(C)C)c1NC(=O)NCc1ccccc1
Q. Cc1cccc(C)c1NC(=O)NCC1(c2ccccc2)CCCCC1
R. CC(C)c1cccc(C(C)C)c1NC(=O)NCC1(c2ccccc2)CCC1
Lookup: // ranking: key=pIC50, reverse=True In your reply, arrange the labels in the requested order.
Found: R, Q, P

1. CC(C)c1cccc(C(C)C)c1NC(=O)NC(=O)C1(c2ccccc2)CCCC1
2. O=C(NCC1(c2ccccc2)CCCCC1)Nc1cc(Cl)ccc1Cl
Lookup: In the pair 1 and 2 , the larger recorded pIC50 belongs to which? State the label of the item chosen.
Found: 1
(1: 6.80, 2: 5.57)

All values here come from ChEMBL document CHEMBL1126873.
